assayed system: T1, P4SHb
T1 chain: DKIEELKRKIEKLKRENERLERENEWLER
protocol details: two-hybrid library CCNG1;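 also: natural log of median RNA to DNA barcode read ratio; higher means stronger binding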
reported endpoint: interaction score

Consider the reported interaction score for these binders:
DKIEELKRKIEKLKRENERLERENEWLER [P4SHb]    -0.574
DKNEELKRENEELERKIERLKEKIRYLKE [P10SHb]    -0.49

A: DEIERLERENEKLERENERLEREIRWLEE [P1SHb]
B: DENEKLEREIRELEREIEKLEKKNRYLKE [P11SHb]
Of A and B , whose reported interaction score is the larger number? Mark your answer with the label of the selected entry. B

a: DKNRELKEKIERLKEKIRELKEENRYLEE [P12SHb]
b: DKIEELKRKNRELKEKNKELKEKIYRLKE [P2SHb]
In terms of reported interaction score, does a or b have the smaller number? Mark your answer with the label of the selected entry. a
(a: -0.198, b: 0.291)
